STUDY_SYSTEM: T1, Human 4-1BB extracellular domain recombinant protein (his-tag) (human, UniProt Q07011 24-186)
T1 construct: extracellular domain; also called Human4-1BB, his-tag; human 4-1BB extracellular region recombinant protein; not shown: his-tag
ASSAY_REMARKS: ELISA, coated human 4-1BB-his 200 ng/well; antibody 0.041 µg/ml
absorbance at 450 nm values by entry
Number only, please.

137-7 VHH-hFc recombinant antibody (Fc fusion, VHH fragment inserted into vector pFclG with human IgG1 Fc tag, expressed in HEK293F; also called CD137-7; not shown: human IgG1 Fc tag of the eukaryotic expression vector pFclG) QVQLVESGGGLVQPGGSLRLSCAASGFTLDSYAIAWFRQAPGKEREGVSCITSSGGSTNYADSVKGRFTISRDGAKNTVYLQLNSLKPEDTAIYYCAAFHRATCVILGEYDYWGQGTQVTVSS :: 0.963

Okay, next one:
Lab note: 137-16 VHH-hFc recombinant antibody (Fc fusion, VHH fragment inserted into vector pFclG with human IgG1 Fc tag, expressed in HEK293F; Preparation had non-specific bands, purity >70%; also called CD137-16; not shown: human IgG1 Fc tag of the eukaryotic expression vector pFclG) EVQLVESGGGLVQAGASLTLSCVISGRTFSSYAMGWYRQAPGKERAFVGTITWNNDIIYSDSVKGRFTISTDDGKNTMYLQMNNLKPEDTAVYYCAAYSVPYGDFCTLNYDLMDYWGKGTLVTVSS gave absorbance at 450 nm of 0.419

Value source: patent EP4592317A1
